experimental.target: UniProt:P43166
Sequence (P43166 whole entry): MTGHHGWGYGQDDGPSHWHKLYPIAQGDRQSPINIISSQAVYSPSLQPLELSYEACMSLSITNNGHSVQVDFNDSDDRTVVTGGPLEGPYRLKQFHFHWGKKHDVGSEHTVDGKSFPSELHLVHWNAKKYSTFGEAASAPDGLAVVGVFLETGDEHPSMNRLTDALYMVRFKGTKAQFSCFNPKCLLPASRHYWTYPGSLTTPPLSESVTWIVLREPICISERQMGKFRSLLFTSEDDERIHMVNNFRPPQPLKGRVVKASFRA
assay.comment: Inhibition of human recombinant carbonic anhydrase 7 assessed as CO2 hydration preincubated for 15 mins prior to testing measured for 10 to 100 secs by phenol red dye-based stopped-flow assay
assay.endpoint: Ki (nM)
Numeric only. Scale: nM

*Q* Please report the recorded Ki for NS(=O)(=O)c1ccc(C(=O)N/N=C/c2ccc(N3CCN(c4ccc(F)cc4)CC3)cc2)cc1 .
*A* 147

*Q* Repeat with NS(=O)(=O)c1ccc(C(=O)N/N=C/c2ccc(N3CCN(c4ncccn4)CC3)cc2)cc1
*A* 132

*Q* Repeat with NS(=O)(=O)c1ccc(C(=O)N/N=C/c2ccc(N3CCN(C(=O)c4ccco4)CC3)cc2)cc1
*A* 78.8

*Q* Repeat with NS(=O)(=O)c1ccc(N/N=C/c2ccc(N3CCN(C(=O)c4ccccc4)CC3)cc2)cc1
*A* 127

*Q* Repeat with Cc1ccc(N2CCN(c3ccc(/C=N/Nc4ccc(S(N)(=O)=O)cc4)cc3)CC2)c(C)c1
*A* 72
